Tested on: KM12
Test: NCI tumour cell line growth inhibition, 48 h
Calls of active or inactive are those of the source. No stated cut-off is given here; in the data, active = GI50 up to about 1.1 µM and inactive = higher. Starred links: 1 amine or outer side, 2 acyl side, 3 side chain; linkers in the order of their positions; H or OH if unused. Non-standard residues stand in square brackets, D forms with d. Residues, ends and D or L forms follow the SMILES beside them. *: point of attachment. X34 = CC(=O)N(C)SCC(N[*:1])C(=O)[*:2]; Cbz = O=C(OCc1ccccc1)*; Bn = c1ccc(C*)cc1; For = O=C*
Value Type: GI50

Input line: GI50 for O=C(/C=C/c1ccc(Cl)c(Cl)c1)C1CCC(Cl)CC1 (stereo not drawn) ?
Output line: 19.2 µM (inactive)

Input line: For O=P(CN1CCOCC1)(c1ccccc1)c1ccccc1 then?
Output line: > 100 µM (inactive)

Input line: For CCCCc1ccc(Nc2nc(O)c3ncn(COCCO)c3n2)cc1 then?
Output line: > 100 µM (inactive)

Input line: For COC(=O)C1Cc2c(n(C)c3ccccc23)C(c2ccccc2)N1 (stereo not drawn) then?
Output line: > 100 µM (inactive)

Input line: For COc1ccc(COCC[C@H](C)OC2OC(CO[Si](C)(C)C(C)(C)C)C(O)C(O)C2O)cc1 (stereo partly drawn) then?
Output line: > 100 µM (inactive)

Input line: For O=C1CSC(c2ccc([N+](=O)[O-])cc2)N1c1nc(-c2ccc3c(c2)CCCC3)cs1 (stereo not drawn) then?
Output line: > 100 µM (inactive)

Input line: For CN(C)CCNC(=O)c1cccc(NC(=O)c2ccccc2)c1[N+](=O)[O-] then?
Output line: > 100 µM (inactive)

Input line: For CCCCCCCC(CC(=O)O)OC(=O)CC(CCCCCCC)OC1OC(C)C(O)C(O)C1OC1OC(C)C(O)C(O)C1O (stereo not drawn) then?
Output line: > 100 µM (inactive)

Input line: For COC(=O)C1(Cc2ccc3c(c2)CCC3)Cc2ccccc2C1 then?
Output line: 37.2 µM (inactive)

Input line: For Cc1cc(C)c(S(=O)(=O)N2CCN(S(=O)(=O)c3c(C)cc(C)cc3C)OCCCCCO2)c(C)c1 then?
Output line: > 100 µM (inactive)

Input line: For CC(C)(C)[Si](C)(C)OCC1OC(n2cnc3c(=O)[nH]cnc32)CC1O (stereo not drawn) then?
Output line: > 100 µM (inactive)

Input line: For CN(C)C(=O)C(F)(F)C(c1ccc(C(F)(F)F)cc1)C1C(=O)N(C)C(=O)N(C)C1=O (stereo not drawn) then?
Output line: > 100 µM (inactive)

Input line: For O=C(O)CC1NCc2cc3ccccc3nc21 (stereo not drawn) then?
Output line: > 100 µM (inactive)

Input line: For O=C1c2ccccc2C(=O)c2c1ccc1c2N=C(c2ccc(F)cc2)CC(c2ccc(Cl)c(Cl)c2)N1 (stereo not drawn) then?
Output line: 6 µM (inactive)

Input line: For CC1=CCC(O)C=CC(C)C(O)C(C)C=C(C)C(=O)c2c(O)c(C)cc3c2C(=O)C(N)=C(NC(=O)/C=C\C=C/C=CC(C)C(O)CC1=O)C3=O (stereo not drawn) then?
Output line: > 100 µM (inactive)

Input line: For N#Cc1nc(CSCc2ccccc2)oc1N then?
Output line: > 100 µM (inactive)

Input line: For O=C(O)c1ccccc1/C=N/N=C1NCCN1 then?
Output line: > 100 µM (inactive)

Input line: For CC(=O)N(C)SCC(NC(=O)C(Cc1ccccc1)NC(=O)OCc1ccccc1)C(=O)NC(Cc1ccccc1)C(=O)NC(Cc1cn(C=O)c2ccccc12)C(=O)NC(CCCCNC(=O)OCc1ccccc1)C(=O)NC(C(=O)NC(CSN(C)C(C)=O)C(=O)NC(C(N)=O)C(C)OCc1ccccc1)C(C)OCc1ccccc1 (stereo not drawn) (Cbz-F[X34]FW(For)K(Cbz)T(Bn)[X34]T(Bn)-NH2; configuration not given here) then?
Output line: > 100 µM (inactive)

Origin of the recorded values: ChEMBL document CHEMBL1201862
